- Test system: UACC-62 melanoma
- TEST DESCRIPTION: NCI-60 one-dose screen, 48 h
- CONDITION DESCRIPTION: 10 µM unless noted
This is part of a sample that, as a whole, favours compounds with a hit. Of some 83,000 tested, about 20% had one in any assay. Activity calls are given as the source filed them. Rule for the calls: active = growth percent below 10; inactive = the rest.
Valid outcomes are listed here; reply with one: active, inactive

**Q:** Hey, what did the test say about Cc1cccc(/C=N/Nc2cc(C)c3cccc(C)c3n2)n1 ?
**A:** inactive

**Q:** Hey, what did the test say about O=C1/C(=C/c2ccc(Cl)cc2)CN(C(=O)CCN2CCC(=NO)CC2)C/C1=C\c1ccc(Cl)cc1 ?
**A:** active

**Q:** Hey, what did the test say about COP(=O)(OC)/C(=N\NS(=O)(=O)c1ccc(C)cc1)c1ccccc1 ?
**A:** inactive

**Q:** Hey, what did the test say about O=c1ccn(C2CC(O)C(O)C(CO)O2)c(=O)[nH]1 (stereo not given) ?
**A:** inactive

**Q:** Hey, what did the test say about C=C1C(=O)O[C@H]2[C@H]1CC/C(COC(=O)NCc1ccccc1OC)=C\CC[C@@]1(C)O[C@@H]21 ?
**A:** inactive

###

- System: A549/ATCC NSCLC
- TEST DESCRIPTION: NCI-60 one-dose screen, 48 h (100 = growth as untreated, 0 = no growth, -100 = all killed)
- CONDITION DESCRIPTION: 10 µM unless noted
The panel holds about 83,000 compounds, 20% with a hit somewhere; the sample as a whole holds those more often.
growth vs 80%: at or above is 1, below is 0.

**Q:** Quick check: does CC(C)CSc1nc(NN)c(C#N)c(-c2ccc(F)cc2)n1 have growth greater than or equal to 80%?
**A:** 0

**Q:** Quick check: does O=C(O)C1CCCCN1c1nc(Cl)nc(Cl)n1 (stereo not given) have growth greater than or equal to 80%?
**A:** 1

**Q:** Quick check: does CCN(CC)c1ccc(N=O)cc1 have growth greater than or equal to 80%?
**A:** 0

**Q:** Quick check: does Cc1ccc2[nH]c(=O)c3c(c2c1)Oc1ncn2nc(-c4ccco4)nc2c1C3c1ccc(Cl)cc1 (stereo not given) have growth greater than or equal to 80%?
**A:** 1

**Q:** Quick check: does Cc1ccc(S(=O)(=O)/C(=C\c2ccc(Cl)cc2)C(=O)c2ccccc2)cc1 have growth greater than or equal to 80%?
**A:** 1

**Q:** Quick check: does CC(=O)Oc1csc(N(C(C)=O)c2cc(C(=O)O)cc(C(=O)O)c2)n1 have growth greater than or equal to 80%?
**A:** 1

**Q:** Quick check: does COc1cc(-c2nn(-c3cccc(NC(=O)Nc4ccc(Cl)c(Cl)c4)c3)cc2-c2ccncc2)ccc1Cl have growth greater than or equal to 80%?
**A:** 0

**Q:** Quick check: does CCc1ccc(-c2ccc(=O)n(-c3ccc(S(N)(=O)=O)cc3)n2)cc1 have growth greater than or equal to 80%?
**A:** 0

**Q:** Quick check: does COc1ccc(/C=C2/C(=O)NC(SCC(=O)N3CCN(c4cc5c(cc4F)c(=O)c(C(=O)O)cn5C4CC4)CC3)=NC2N)cc1OC (stereo not given) have growth greater than or equal to 80%?
**A:** 1

**Q:** Quick check: does CCOC(=O)c1cn2c3c(cccc3c1=O)C(=O)/C(=C/c1cccc(Cl)c1Cl)C2 have growth greater than or equal to 80%?
**A:** 1

**Q:** Quick check: does O=[N+]([O-])c1cccc(-c2nc3sccn3c2-c2ccnc(NCCCNS(=O)(=O)c3ccc(Cl)cc3)n2)c1 have growth greater than or equal to 80%?
**A:** 0

**Q:** Quick check: does COc1ccc(Nc2nn3c(C)cc(C)nc3c2C(=O)Nc2ccc(C)cc2)c(OC)c1 have growth greater than or equal to 80%?
**A:** 1

**Q:** Quick check: does COc1ccc(Nc2ncccc2C(=O)NCc2cn(Cc3cccc(Oc4ccccc4)c3)nn2)c(OC)c1 have growth greater than or equal to 80%?
**A:** 0

**Q:** Quick check: does COc1ccc(-c2nc(N3CCCC3=O)sc2Br)cc1OC have growth greater than or equal to 80%?
**A:** 1

**Q:** Quick check: does CCNc1nc(S(=O)(=O)CC)nc2ccccc12 have growth greater than or equal to 80%?
**A:** 1

**Q:** Quick check: does Nc1nc(-c2ccccc2)c(CCCOc2ccc(NC(=O)CBr)cc2)c(=O)[nH]1 have growth greater than or equal to 80%?
**A:** 1

**Q:** Quick check: does COc1ccc(C2CC(c3ccc(OC)cc3OC)=NN2c2ccc(S(N)(=O)=O)cc2)cc1 (stereo not given) have growth greater than or equal to 80%?
**A:** 0

**Q:** Quick check: does O=c1[nH]c2ccc(Br)cc2c2c1C(c1ccc(Cl)cc1)c1c(ncn3nc(-c4ccco4)nc13)O2 (stereo not given) have growth greater than or equal to 80%?
**A:** 0

**Q:** Quick check: does NC(=S)N/N=C(/CCN1CCCC1)CC(C1=C(O)C2=CCCCC2OC1=O)c1ccccc1 (stereo not given) have growth greater than or equal to 80%?
**A:** 1
